Source listed as PubChem BioAssay.

assay: probe aCHRDL2 binding to arrayed compounds – biochemical, biotinylated probe, 635/667 nm fluorescence, primary screen (AID 1100); conditions: small-molecule microarray, higher = more signal
// values below are reported composite z-score
reportedProperty: composite z-score

compound	readoutNumber
CCCCN1CC=CC23O[C@@H]4/C=C\CCCOC(=O)C4[C@H]2C(=O)N(C(C)CO)[C@@H]3C1=O (stereo partly specified)	-0.305
C=CC[C@]1(C(=O)O)N=C(c2ccc(OCCCO)cc2)O[C@H]1c1ccccc1CN=[N+]=[N-]	0.559
O=C1OCC=C[C@H]2OC34C=CCN(c5ccc6ccccc6c5)C(=O)[C@H]3N(CCO)C(=O)[C@@H]4[C@@H]12 (stereo partly specified)	0.947
COC(=O)[C@@]1(Cc2ccc(F)cc2)[C@H]2c3cc(C(=O)N(C)C)n(Cc4ccccn4)c3C[C@H]2CN1C(=O)c1ccccc1	1.14
C=CCC(OC(C)=O)[C@@H]1[C@@H](N(Cc2cc3ccccc3o2)C(=O)c2ccc(C)cc2)c2cc(OCCCO)ccc2N1C(=O)c1ccc(-c2ccccc2)cc1 (stereo partly specified)	0.118
CCCCCCC#C[Si](O[C@H](c1ccccc1)c1cn([C@H](C)c2ccccc2)nn1)(C(C)C)C(C)C	-0.365
Cc1c(NC(=O)/C(C#N)=C/C=C/c2ccccc2)c(=O)n(-c2ccccc2)n1C	-0.366
C=CCC(OC(C)=O)[C@@H]1[C@@H](N(Cc2ccc(-c3cccc(C(F)(F)F)c3)o2)C(=O)c2ccc(C)cc2)c2cc(OCCCO)ccc2N1C(=O)c1ccc2ccccc2n1 (stereo partly specified)	0.253
CO[C@H]1O[C@H](CO)[C@@H](OC(=O)Nc2ccc(C(F)(F)F)cc2)[C@H](OC(=O)Nc2ccccc2)[C@@H]1OC(=O)Nc1ccccc1	0.144
CCOC(=O)C1=CC[C@@H](c2cccc(Cl)c2)N(S(=O)(=O)c2ccc(C)cc2)[C@H]1c1ccc(C#N)cc1	0.252
C/C=C/[C@H](CCn1cc([C@H](O)c2ccccc2)nn1)[Si](C)(C)c1ccc(OC)cc1	0.503

* * *

target: Calmodulin-1 (Homo sapiens); experiment: small molecules binding Ca-loaded calmodulin-1 – biochemical, small-molecule microarray, Cy5-labelled CALM1, plus calcium, artefact control for SMM control-protein annotation, profiling panel (AID 1112); settings: Cy5-CALM1 binding fluorescence, higher = more signal;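 further: score merges spot fluorescence with signal to noise from triplicate slides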
// values below are reported composite z-score
reportedProperty: composite z-score

molecule	readoutNumber
CCN(CC)c1ccc(N2CC=CC34O[C@@H]5C=CCCOC(=O)C5[C@H]3C(=O)N(CCCO)[C@@H]4C2=O)cc1 (some centres not stated)	-0.977
[N-]=[N+]=NCc1ccccc1C[C@@]1(C(=O)NCc2ccccc2)N=C(c2ccc(OCCCO)cc2)O[C@@H]1c1ccccc1CN=[N+]=[N-]	0.924
Cc1ccc(S[C@]2(C(=O)NCC(C)C)CC(=O)N(Cc3ccccc3)[C@@H]2c2ccc(CO)cc2)cc1	-0.249
[N-]=[N+]=NCc1ccccc1[C@H]1OC(c2ccc(OCCCO)cc2)=N[C@@]1(Cc1ccccc1)C(=O)O	0.484
CC(C)(C)OC(=O)CC[C@@]1(C(=O)NCC(O)CO)N=C(c2ccc(OCCCO)cc2)O[C@@H]1c1ccccc1 (some centres not stated)	0.924
O=C1C2C=CC(C(O)c3ccc(Br)cc3)N(n3cnnc3)C2C(=O)N1Cc1ccccc1 (configuration not stated)	0.182
O=C1O[C@H](c2ccccc2)[C@H](c2ccccc2)N2[C@H]1[C@@H](C(=O)N1CCCCCCC1)[C@]1(C(=O)Nc3ccc(C#CC4=CCCCC4)cc31)[C@H]2c1ccc(O)cc1	2.02
CC1CC/C=C\[C@H]2OC34C=CCN(Cn5nnc6ccccc65)C(=O)[C@H]3N(CCCO)C(=O)[C@@H]4C2C(=O)O1 (some centres not stated)	0.25
COC(=O)[C@@]1(Cc2ccccc2)[C@H]2c3cc(C(=O)N(C)C)n(Cc4ccccc4)c3C[C@H]2CN1C(=O)c1ccccc1	0.0453
CO[C@H]1O[C@H](CO)[C@@H](OC(=O)Nc2ccccc2-c2ccccc2)[C@H](OC(=O)Nc2ccccc2-c2ccccc2)[C@H]1OC(=O)Nc1ccccc1-c1ccccc1	-0.588
C=C(C(=O)CC[C@H](OC(=O)c1cccnc1)c1ccccc1OCCO)C(C)C	-1.24
COc1ccc([Si](C)(C)[C@@H]2[C@@H](CCO)O[C@]3(C(=O)N(Cc4cccc(N(C=O)c5ccccc5)c4)c4ccccc43)[C@H]2C)cc1	1.09

* * *

system: Fibrinogen (Alexa647-labelled); assay: Alexa647-fibrinogen binding to printed small molecules – biochemical, small-molecule microarray, 635/667 nm fluorescence, artefact control for SMM control-protein annotation, profiling panel (AID 1131); conditions: fibrinogen-A647 binding fluorescence, higher = more signal;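 further: z-score merges 667 nm fluorescence with per-spot signal-to-noise over triplicate slides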
// values below are reported composite z-score

compound	composite z-score
C=C[C@H](C)[C@H](OC(=O)Nc1ccc(OC)cc1)c1ccc(O)c2ccccc12	0.604
CC(=O)NCCCC[C@@H]1NC(=O)[C@@H]2C[C@H](C(=O)NCCCCCC[N+](C)(C)C)[C@H](c3cccc(OCCO)c3)N2C1=O	0.416
CCOC(=O)C[C@H]1[C@H](OC(=O)c2ccc(C(=O)c3ccccc3)cc2)[C@@H](NC(=O)c2ccc3ccccc3n2)c2cc(OCCCO)ccc2N1C(=O)c1ccc2ccccc2n1	0.887
C=CCC(OC(C)=O)[C@@H]1[C@@H](N(Cc2cc3ccccc3o2)C(=O)c2cccc3ccccc23)c2cc(OCCCO)ccc2N1C(=O)Cc1ccc(OC)cc1 (stereo not given in full)	0.412
CCOC(=O)C1=CC[C@@H](c2ccccc2)N(S(=O)(=O)c2ccc(C)cc2)[C@H]1c1ccc(C#N)cc1	0.931

* * *

assay: probe aNog binding to arrayed compounds – biochemical, biotinylated probe, 635/667 nm fluorescence, primary screen (AID 1115); details: small-molecule microarray, higher = more signal;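 further: probe is biotinylated aNog protein used at 0.15 µg/mL for 1 h at 4 C; z-score combines 667 nm fluorescence of each spot with its signal to noise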
composite z-score of -0.1 or higher: class 1. Under -0.1: class 0.

compound	classAssignment
O[C@@H](Cc1ccccc1)[C@@H](/C=C/c1ccccc1)NCc1ccccc1Br	class 0
Cc1cc(C)c(C(O)C2C=CC3C(=O)NC(=O)C3N2Nc2ccccn2)c(C)c1 (stereo unspecified)	class 1
C=CCN1Cc2ccccc2C[C@@]2(COC(c3ccc(OCCCO)cc3)=N2)C1=O	class 1
O=C(NCC(O)CO)[C@@]1(Cc2ccccc2)N=C(c2ccc(OCCCO)cc2)O[C@H]1c1ccccc1 (stereo partly specified)	class 0
C=C(COC)C(=O)CC[C@@H](OC(=O)c1ccccc1-c1ccccc1C(=O)O)c1ccc(CO)o1	class 0

* * *

target: NADPH oxidase 5 (Homo sapiens) (UniProt Q96PH1); assay: compounds shifting NOX5 Amplex Red fluorescence – cell-based, HEK293-NOX5, NOX inhibitor project, primary screen (AID 1161); details: HEK293-NOX5, ionomycin, 45 min, higher = more signal
Sequence (Q96PH1 whole entry, looked up): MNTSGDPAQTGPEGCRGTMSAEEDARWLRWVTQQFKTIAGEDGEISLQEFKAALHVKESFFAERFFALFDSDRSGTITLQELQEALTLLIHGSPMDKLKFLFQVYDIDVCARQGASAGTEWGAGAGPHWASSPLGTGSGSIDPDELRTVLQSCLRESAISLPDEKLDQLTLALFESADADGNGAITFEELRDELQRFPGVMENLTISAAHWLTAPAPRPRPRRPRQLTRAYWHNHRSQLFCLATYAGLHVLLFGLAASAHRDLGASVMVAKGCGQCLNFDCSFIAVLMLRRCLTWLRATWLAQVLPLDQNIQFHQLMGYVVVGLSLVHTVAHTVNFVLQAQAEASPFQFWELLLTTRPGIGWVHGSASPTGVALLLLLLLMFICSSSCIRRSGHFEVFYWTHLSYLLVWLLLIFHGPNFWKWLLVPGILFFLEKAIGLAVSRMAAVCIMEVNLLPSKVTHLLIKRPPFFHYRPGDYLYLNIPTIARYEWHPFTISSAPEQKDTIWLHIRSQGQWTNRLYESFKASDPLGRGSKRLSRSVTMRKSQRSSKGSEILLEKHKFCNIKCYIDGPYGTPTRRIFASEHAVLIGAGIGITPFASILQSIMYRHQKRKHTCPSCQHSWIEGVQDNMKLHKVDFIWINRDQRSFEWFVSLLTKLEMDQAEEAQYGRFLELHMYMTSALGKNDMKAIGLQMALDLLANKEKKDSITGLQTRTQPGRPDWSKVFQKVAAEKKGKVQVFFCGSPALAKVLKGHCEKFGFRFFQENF
reportedProperty: z-score

compound	reportedProperty	readoutNumber
CN1C(=O)C2C=CC(C(O)c3ccc(Br)cc3)N(Nc3ccccc3)C2C1=O (centres undefined)	z-score	-2.23
O=C1C2C=CC(C(O)c3ccc(B(O)O)cc3)N(Nc3ccc([N+](=O)[O-])cc3)C2C(=O)N1c1ccccc1 (centres undefined)	z-score	-3.79
C=CCN1Cc2ccccc2C[C@@]2(COC(c3ccc(OCCCO)cc3)=N2)C1=O	z-score	-3.28
C=C(CCCC)C(=O)CC[C@H](OC(C)=O)c1ccc(CO)o1	z-score	-1.32
[N-]=[N+]=Nc1ccccc1[C@H]1OC(c2ccc(OCCCO)cc2)=N[C@@]1(CCS(=O)(=O)c1ccccc1)C(=O)N1CCOCC1	z-score	1.36
COc1ccc([Si](C)(C)[C@@H]2[C@@H](CCO)O[C@]3(C(=O)N(Cc4cccc(N(C=O)c5ccccc5)c4)c4ccccc43)[C@H]2C)cc1	z-score	-0.78
O=C1C[C@@](C(=O)O)(c2ccc([N+](=O)[O-])cc2)[C@@H](c2ccc(CO)cc2I)N1CC12CC3CC(CC(C3)C1)C2	z-score	1.72
CO[C@H]1O[C@H](CO)[C@@H](OC(=O)Nc2ccccc2-c2ccccc2)[C@H](OC(=O)Nc2ccccc2-c2ccccc2)[C@H]1OC(=O)Nc1ccccc1-c1ccccc1	z-score	-0.439
C=CC[C@@]1(C(=O)NCCN2CCOCC2)N=C(c2ccc(OCCCO)cc2)O[C@@H]1c1ccccc1CN=[N+]=[N-]	z-score	-0.701
O=C1O[C@@H](c2ccccc2)[C@@H](c2ccccc2)N2[C@@H](c3ccc(O)cc3)[C@]3(C(=O)Nc4ccccc43)[C@@H](C(=O)N3CCCCCCC3)[C@H]12	z-score	1.57
COc1ccc([Si](C)(C)[C@@H]2[C@@H](CC(=O)N3Cc4ccccc4C[C@H]3CO)O[C@]3(C(=O)N(Cc4cccc(N5C(=O)COc6ccccc65)c4)c4ccccc43)[C@H]2C)cc1	z-score	0.827
Oc1ccc2cc[n+](Cc3cccc(OC(F)(F)F)c3)cc2c1	z-score	-0.3
COCCCNC(=O)[C@@]1(C)c2ccccc2C(=O)N(Cc2ccccc2)[C@H]1c1ccc(CO)cc1	z-score	-2.66
O=C(N1CCCCC1)[C@]1(CCS(=O)(=O)c2ccccc2)N=C(c2ccc(OCCCO)cc2)O[C@@H]1c1ccccc1	z-score	-1.94
